- tgt: T1, human apical domain of CD71 (human, UniProt P02786 189-383, limits assumed)
- T1 construct: domain: apical domain
- test.description: primary ELISA; signal over HSA control
test.readout: Apical domain:HSA (ratio)
Numbers only here, please. The scale is ratio.

Let me know recorded Apical domain:HSA for CD71-binding FN3 domain SEQ ID NO 398 (designed binder) MLPAPKNLVVSRVTEDSARLSWTAPDAAFDSFFIGYLEPQPPGEAIYLTVPGSERSYDLTGLKPGTEYNVTIQGVKGGFPSKPLTANFTT , thanks.
129

Provide measured Apical domain:HSA value, entry: CD71-binding FN3 domain SEQ ID NO 424 (designed binder) MLPAPKNLVVSRVTEDSARLSWTAPDAAFDSFFIGYLEPQPPGEAIHLIVPGSERSYDLTGLKPGTEYNVTIQGVKGGFPSDPLDASFTT
155

Find the measured Apical domain:HSA of CD71-binding FN3 domain SEQ ID NO 434 (designed binder) MLPAPKNLVVSRVTEDSARLSWTAPDAAFDSFFIGYLEPQPPGEAIGLQVPGSERSYDLTGLKPGTEYNVTIQGVKGGFPSDPLQAIFTT and report it.
403

Please give the documented Apical domain:HSA of CD71-binding FN3 domain SEQ ID NO 354 (designed binder) MLPAPKNLVVSRVTEDSARLSWTAPDAAFDSFFIGYLEPQPPGEAIQLWVPGSERSYDLTGLKPGTEYNVTIQGVKGGFPSLPLVATFTT
142
